Source: the supplement of paper PMC5998384

Tested on: HeLa Kyoto;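 also: HeLa Kyoto cells arrested at G1/S by double thymidine block, proteins quantified by TMT10plex mass spectrometry in mild NP-40 versus SDS extracts, three biological replicates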
protocol text: solubility in G1/S (NP-40 vs SDS abundance) (log2 ratio); higher = more soluble
condition summary: cell cycle stage: G1/S
Each entry below carries its recorded solubility in G1/S (log2).
Answer with a bare number; do not write a unit.

Record excerpt, results attached:
Query string: What measured solubility in G1/S (log2) goes with MEADASVDMFSKVLEHQLLQTTKLVEEHLDSEIQKLDQMDEDELERLKEKRLQALRKAQQQKQEWLSKGHGEYREIPSERDFFQEVKESENVVCHFYRDSTFRCKILDRHLAILSKKHLETKFLKLNVEKAPFLCERLHIKVIPTLALLKDGKTQDYVVGFTDLGNTDDFTTETLEWRLGSSDILNYSGNLMEPPFQNQKKFGTNFTKLEKKTIRGKKYDSDSDDD [TXNDC9] ?
Result string: 0.273

Query string: Which value of solubility in G1/S (log2) has been reported for MALNKNHSEGGGVIVNNTESILMSYDHVELTFNDMKNVPEAFKGTKKGTVYLTPYRVIFLSKGKDAMQSFMMPFYLMKDCEIKQPVFGANYIKGTVKAEAGGGWEGSASYKLTFTAGGAIEFGQRMLQVASQASRGEVPSGAYGYSYMPSGAYVYPPPVANGMYPCPPGYPYPPPPPEFYPGPPMMDGAMGYVQPPPPPYPGPMEPPVSGPDVPSTPAAEAKAAEAAASAYYNPGNPHNVYMPTSQPPPPPYYPPEDKKTQ [WBP2] in the records?
Result string: 0.283

Attention now shifts to the item below.
Query string: Look up solubility in G1/S (log2): MSCTIEKALADAKALVERLRDHDDAAESLIEQTTALNKRVEAMKQYQEEIQELNEVARHRPRSTLVMGIQQENRQIRELQQENKELRTSLEEHQSALELIMSKYREQMFRLLMASKKDDPGIIMKLKEQHSKIDMVHRNKSEGFFLDASRHILEAPQHGLERRHLEANQNELQAHVDQITEMAAVMRKAIEIDEQQGCKEQERIFQLEQENKGLREILQITRESFLNLRKDDASESTSLSALVTNSDLSLRKS [FGFR1OP2]
Result string: 0.209
